Each entry below carries its recorded % Inhibition.
Tested on: P. falciparum stage V gametocytes
Set-up: BacTiter-Glo ATP luminescence viability of purified stage V gametocytes in 384-well plates, per cent inhibition versus DMSO
Settings: 48 h, 5 µM; inhibitor
In all, about 13,000 compounds went through this assay and about 3,200 (25%) showed an effect of 50% or more. This is one part of the list.
Provide the reading as a plain figure in %.

Measured % Inhibition, CN1CCCN(Cc2ccc(-c3cccc(NC(=O)c4cccc(C#N)c4)c3)cc2)CC1 [TCMDC-132648] : 64.68

Lab note: measured % Inhibition of Cc1c(C(=O)NCc2ccncc2)sc2nc(-c3cccc([N+](=O)[O-])c3)cn12 [TCMDC-124992] was -38.46

So, N#Cc1ccc(C(=O)Nc2cccc(-c3ccc(CN4CCCC4)cc3)c2)cc1 [TCMDC-132639] ? Its % Inhibition was 23.71

What the record says about CCN1CCCC(CNC(=O)/C(=C/C=C/c2cc3cc(Cl)c(Cl)cc3[nH]2)OC)C1 (centres unmarked) [TCMDC-139380] : % Inhibition is -27.83

Kindly note the recorded % Inhibition for Nc1nc2c(c(=O)[nH]1)CN(S(=O)(=O)c1ccc(C(=O)N[C@@H](CCC(=O)O)C(=O)O)cc1)CC2 [TCMDC-137681] , which is -6.076

Entry N#Cc1cccc(C(=O)Nc2ccc(-c3ccc(CN4CCCC4)cc3)cc2)c1 [TCMDC-132596] — recorded % Inhibition = 64.33

Consider N#Cc1ccc(C(=O)Nc2ccc(-c3cccc(CN4CCCC4)c3)cc2)cc1 [TCMDC-132668] . Its measured % Inhibition is 1.206

Reported % Inhibition ( CN1CCCN(Cc2cccc(-c3cccc(NC(=O)c4cccc(C#N)c4)c3)c2)CC1 [TCMDC-132661] ) = 20.56

====

# % Inhibition annotations
Tested on: P. falciparum stage V gametocytes
Parameters: BacTiter-Glo ATP luminescence viability of purified stage V gametocytes in 384-well plates, per cent inhibition versus DMSO
Conditions: 48 h, 5 µM; inhibitor
About 3,200 (25%) of roughly 13,000 compounds showed an effect of 50% or more. This is one part of the list.
Please answer using the number first and the unit second.

Worked set:
- CN1CCN(CCCN(Cc2ccc(-c3ccc(CNCc4ccc5c(c4)OCO5)cc3)cc2)C(=O)CCC2CCCC2)CC1: 102.2%
- Nn1c(=O)oc2ccc(Cl)cc2c1=O: 8.283%
- CN1CCN(CCCN(Cc2ccc(-c3cccc(CNCc4ccc5c(c4)OCO5)c3)cc2)C(=O)NC2CCCCC2)CC1: 56.14%

Proceed to the following item.
For CN1CCN(CCCN(Cc2ccc(-c3cccc(CNCc4ccc5c(c4)OCO5)c3)cc2)C(=O)CCC2CCCC2)CC1 on P. falciparum stage V gametocytes, measured % Inhibition was 61.11%

====

Let's look at some molecules and their measured % Inhibition.
System: P. falciparum stage V gametocytes
Design: BacTiter-Glo ATP luminescence viability of purified stage V gametocytes in 384-well plates, per cent inhibition versus DMSO
Details: 48 h, 5 µM; inhibitor
The campaign covered roughly 13,000 compounds. About 3,200 (25%) showed an effect of 50% or more. The list shows a part of the results.
State just the number; it will be interpreted in %.

• CCOC(=O)N1NC(=O)N(c2ccccc2)C1(c1ccccc1)c1ccccc1 = -11.41
• O=C1OC(c2cc3ccccc3n2S(=O)(=O)c2ccccc2)(c2cc3ccccc3n2S(=O)(=O)c2ccccc2)c2ccccc21 = 29.52
• Cc1cc(NN=Cc2cccc(F)c2)c2cccc(C)c2n1 = -19.79
• Cc1cc(N[C@@H](Cc2ccccc2)C(=O)NCCOc2ccccc2)nc(Nc2ccccc2)n1 = 6.483
• O=C(Nc1ccc(C(=O)OCC2CCCN3CCCCC23)cc1)c1ccc(Cl)c(Cl)c1 (centres unmarked) = 3.603
• CCNc1cc(C(=O)N[C@@H](Cc2ccccc2)[C@H](O)CNC2CCC(F)(F)CC2)c(F)c(N2CCCCS2(=O)=O)c1 = 35.59
• Cc1cc(N[C@@H](Cc2ccccc2)C(=O)NCCc2ccccc2)nc(NCCOc2ccccc2)n1 = 65.02
• CCCNCc1ccc(-c2ccc(CN(CCOC)C(=O)c3cccc(C#N)c3)cc2)nc1 = 90.8

The recorded % Inhibition for CCCNCc1ccc(-c2ccc(CN(CCOC)C(=O)/C=C/c3ccccc3C)cc2)nc1 is 40.67

Kindly note the recorded % Inhibition for CC(=O)c1ccc(-c2cccc3c(CC(=O)Nc4ccc5nccc(N6CCN(C)CC6)c5c4)cccc23)cc1 , which is -10.77

====

System: P. falciparum stage V gametocytes
Set-up: BacTiter-Glo ATP luminescence viability of purified stage V gametocytes in 384-well plates, per cent inhibition versus DMSO
Conditions: 48 h, 5 µM; inhibitor
In all, about 13,000 compounds went through this assay and about 3,200 (25%) showed an effect of 50% or more. The list shows a part of the results.
readout.label: % Inhibition (%)
Lab book: enter the figure in %, no units written.

- COc1ccc(NC(=O)NC2CCN(c3ccnc4ccccc34)C2)cc1 (stereo not shown) [TCMDC-133575]: 3.669
- O=C(NC1CCCCC1)N(Cc1ccc(-c2ccc(CNC3CCCC3)cc2)cc1)C1CCN(Cc2ccccc2)CC1 [TCMDC-140639]: 105.2

// field: % Inhibition; key: NC1=NC(c2ccccc2)N(c2ccc(Cl)c(Cl)c2)C(N)=N1 (stereo not shown) [TCMDC-136305] ; value = 1.025

molecule COC(=O)c1ccc(CC(C)NCC(O)c2cccc(C(F)(F)F)c2)cc1F (stereo not shown) [TCMDC-131519] , % Inhibition observed: 6.156

====

Test system: P. falciparum stage V gametocytes
Parameters: BacTiter-Glo ATP luminescence viability of purified stage V gametocytes in 384-well plates, per cent inhibition versus DMSO
Details: 48 h, 5 µM; inhibitor
Hit rate of the full screen: of about 13,000 compounds, about 3,200 (25%) showed an effect of 50% or more. Some of the results follow.
readout.label: % Inhibition (%)
Give the number; % is assumed, so skip it.

* COc1cc(C)ccc1S(=O)(=O)N1CCCCC(c2ccc(C(F)(F)F)cc2)=N1 | 19.73
* CC(Cc1ccc(CN2CCN(Cc3ccccc3)CC2)cc1)NCC(O)c1cccc(C(F)(F)F)c1 (centres unmarked) | 42.03
* Cc1cccc2[nH]c(-c3cccc(-c4ccc(NC(=O)Nc5cccc(C#N)c5)cc4)c3)nc12 | 2.358
* Cc1ccc2c(Cl)c(C(=O)N3CCCc4ccccc43)sc2c1 | 1.703
* Cc1nnsc1C(=O)Nc1ccc(-c2ccc(-c3nc4ccccc4[nH]3)s2)cc1 | 0.7938

Memo: Cn1cccc1C(=O)C(=O)Nc1cccc(-c2ccc(-c3nc4ccc(C(F)(F)F)cc4[nH]3)cc2)c1 , reported % Inhibition: 0.09328

Data point: N#Cc1ccc2c(c1)CCN(CCC1CCC(NC(=O)/C=C/c3ccc4ccccc4c3)CC1)CC2 (centres unmarked) ; % Inhibition = -26.43

====

Tested on: P. falciparum stage V gametocytes
Design: BacTiter-Glo ATP luminescence viability of purified stage V gametocytes in 384-well plates, per cent inhibition versus DMSO
Details: 48 h, 5 µM; inhibitor
Screen size: about 13,000 compounds; about 3,200 (25%) showed an effect of 50% or more. This is one part of the list.
The following compounds are shown together with reported % Inhibition values.
Write it as a number; the unit % goes unstated.

Below are worked cases with known answers.
* Cc1[nH]c(C)c(-c2ccc(Oc3ccc(Cl)cc3)cc2)c(=O)c1I [TCMDC-137393] | 12.14
* N#Cc1ccc(NC(=O)N2CCCN(CCCCCNC(=O)/C=C/c3ccc(Cl)c(Cl)c3)CC2)cc1 [TCMDC-135746] | -26.45
* CCOc1cc(C(=O)Nc2cccnc2)cc(Br)c1OCCC(C)C [TCMDC-123549] | 16.86
* CC(C)C[C@H](NC(=O)c1cc2ccccc2s1)C(=O)N[C@H]1CCN(Cc2ccc(I)c(OCCN3CCCC3)c2)C1 [TCMDC-140287] | 56
* COc1ccc2cc(C(C)NC3CCN(c4cccc(NC(=O)c5ccncc5)c4)CC3)ccc2c1 (centres unmarked) [TCMDC-124668] | -18.92
* CCCCNC(=O)[C@H](Cc1ccccc1)NC(=O)c1ccc(O)c(-c2ccc(Cl)c(Cl)c2)c1 [TCMDC-140840] | 16.49

Param item: CCCc1cc(Cc2cnc(N)nc2N)cc(CCC)c1OCCCCC(=O)OCC [TCMDC-137294] ; param system: P. falciparum stage V gametocytes; output % Inhibition: 0.6782

Record CCOc1ccc(C(C)NC(=O)Nc2ccccc2)cc1OCC (centres unmarked) [TCMDC-123556] ; system P. falciparum stage V gametocytes; % Inhibition = 52.41
